assay: Efflux ratio of permeability in human Caco2 cells; format: ADME, cell-based; conditions: Caco-2

chemical-structure | efflux ratio
COc1nc(C2=NOC[C@H](c3cc4ccccc4o3)N2)ccc1-n1cnc(C)c1 | 1.1

###

test: Ratio of drug level in brain to plasma in mouse at 30 mg/kg, po measured at 6 hrs post dose; format: ADME, organism-based; conditions: read-out: BPR

chemical-structure | Kp at 6 h
COc1nc(C2=NOC[C@H](c3cc4ccccc4o3)N2)ccc1-n1cnc(C)c1 | 1.5
COc1nc(C2=NOC[C@H](c3cc4ccccc4s3)N2)ccc1-n1cnc(C)c1 | 2.8

###

assay: Half life in Wistar rat at 1 mg/kg, iv; format: ADME, organism-based; settings: in vivo

chemical-structure | half-life / min
COc1nc(C2=NOC[C@H](c3cc4ccccc4o3)N2)ccc1-n1cnc(C)c1 | 132

###

experiment: Volume of distribution at steady state in Wistar rat at 1 mg/kg, iv; type: ADME, organism-based; conditions: in vivo, read-out: Vdss
measure-name: Vd (L/kg)

chemical-structure | readout-number
COc1nc(C2=NOC[C@H](c3cc4ccccc4o3)N2)ccc1-n1cnc(C)c1 | 1

###

experiment: Total drug level in rat brain at 30 mg/kg, po measured at 6 hrs post dose; assay type: ADME, organism-based; settings: read-out: Drug uptake
measure-name: concentration at 6 h (µM)

chemical-structure | measure-name | readout-number
COc1nc(C2=NOC[C@H](c3cc4ccccc4o3)N2)ccc1-n1cnc(C)c1 | concentration at 6 h | 13.7

###

test: Total drug uptake in mouse brain at 90 mg/kg, po measured at 6 hrs post dose; format: ADME, organism-based; details: read-out: Drug uptake

chemical-structure | concentration at 6 h [µM]
COc1nc(C2=NOC[C@@H]3[C@H](Oc4ccc(Cl)cc4C(F)(F)F)CCCN23)ccc1-n1cnc(C)c1 | 36

###

assay: Total drug level in mouse brain at 30 mg/kg, po measured at 6 hrs post dose; assay type: ADME, organism-based; settings: read-out: Drug uptake
measure-name: concentration at 6 h (µM)

chemical-structure | measure-name | readout-number
COc1nc(C2=NOC[C@H](c3cc4ccccc4s3)N2)ccc1-n1cnc(C)c1 | concentration at 6 h | 30.2

###

target: Cytochrome P450 2C19 (Homo sapiens); assay: Inhibition of CYP2C19 (unknown origin); assay type: ADME
Sequence (P33261 whole entry): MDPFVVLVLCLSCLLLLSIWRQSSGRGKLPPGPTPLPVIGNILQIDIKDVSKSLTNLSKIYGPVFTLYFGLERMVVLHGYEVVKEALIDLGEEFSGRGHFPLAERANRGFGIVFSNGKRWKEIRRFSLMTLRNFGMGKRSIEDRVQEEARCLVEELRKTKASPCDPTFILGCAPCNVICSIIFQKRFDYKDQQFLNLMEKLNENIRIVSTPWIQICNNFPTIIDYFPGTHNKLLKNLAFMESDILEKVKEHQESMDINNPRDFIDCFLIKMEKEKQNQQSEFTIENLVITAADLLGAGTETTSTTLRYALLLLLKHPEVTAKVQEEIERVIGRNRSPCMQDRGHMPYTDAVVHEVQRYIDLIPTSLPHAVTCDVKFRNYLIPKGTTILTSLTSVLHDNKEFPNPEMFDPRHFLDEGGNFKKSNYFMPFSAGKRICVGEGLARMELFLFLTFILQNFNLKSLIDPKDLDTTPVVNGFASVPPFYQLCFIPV
pIC50: −log10 of the molar value.

chemical-structure | pIC50
COc1nc(C2=NOC[C@H](c3cc4ccccc4o3)N2)ccc1-n1cnc(C)c1 | 4.77

###

experiment: AUClast in Wistar rat at 10 mg/kg, po; type: ADME, organism-based; set-up: dose 10 mg/kg, route oral, time 0 - last; conditions: in vivo

chemical-structure | unit-descriptor | AUC(0-t)
COc1nc(C2=NOC[C@H](c3cc4ccccc4o3)N2)ccc1-n1cnc(C)c1 | µM·h | 67.8

###

target: UniProt Q12809; experiment: Inhibition of human ERG by patch clamp assay
Sequence (Q12809 whole entry): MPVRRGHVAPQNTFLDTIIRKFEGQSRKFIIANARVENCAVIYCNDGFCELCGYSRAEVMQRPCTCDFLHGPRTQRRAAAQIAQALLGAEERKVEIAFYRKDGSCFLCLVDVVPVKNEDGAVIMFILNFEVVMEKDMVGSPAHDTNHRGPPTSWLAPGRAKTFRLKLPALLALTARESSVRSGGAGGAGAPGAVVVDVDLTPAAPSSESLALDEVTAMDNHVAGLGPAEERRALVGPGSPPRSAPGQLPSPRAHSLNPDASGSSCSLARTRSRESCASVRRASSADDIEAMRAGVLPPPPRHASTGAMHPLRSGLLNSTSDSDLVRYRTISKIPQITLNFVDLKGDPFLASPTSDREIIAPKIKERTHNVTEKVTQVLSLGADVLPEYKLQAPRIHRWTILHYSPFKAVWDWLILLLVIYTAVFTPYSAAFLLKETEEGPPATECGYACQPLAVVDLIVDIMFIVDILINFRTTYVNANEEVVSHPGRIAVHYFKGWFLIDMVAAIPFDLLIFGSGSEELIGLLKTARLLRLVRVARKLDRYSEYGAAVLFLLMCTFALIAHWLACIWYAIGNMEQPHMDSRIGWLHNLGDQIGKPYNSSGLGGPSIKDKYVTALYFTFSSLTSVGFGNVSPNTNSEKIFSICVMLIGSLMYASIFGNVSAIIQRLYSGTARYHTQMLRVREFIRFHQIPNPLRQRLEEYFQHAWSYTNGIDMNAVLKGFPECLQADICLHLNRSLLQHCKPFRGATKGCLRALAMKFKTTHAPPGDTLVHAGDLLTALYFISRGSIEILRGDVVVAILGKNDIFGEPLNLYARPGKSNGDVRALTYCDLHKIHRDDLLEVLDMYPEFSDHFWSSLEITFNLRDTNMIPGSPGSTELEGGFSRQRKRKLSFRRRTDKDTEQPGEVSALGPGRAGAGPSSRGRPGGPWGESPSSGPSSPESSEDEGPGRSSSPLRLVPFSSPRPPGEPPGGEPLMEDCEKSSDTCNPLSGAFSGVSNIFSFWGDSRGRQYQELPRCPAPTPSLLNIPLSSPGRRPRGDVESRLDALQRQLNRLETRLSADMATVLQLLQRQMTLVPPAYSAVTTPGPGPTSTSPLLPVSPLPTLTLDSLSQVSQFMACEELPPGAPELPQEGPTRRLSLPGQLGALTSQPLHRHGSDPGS
pIC50: −log10 of the molar value.
measure-name: pIC50

chemical-structure | measure-name | readout-number
COc1nc(C2=NOC[C@H](c3cc4ccccc4o3)N2)ccc1-n1cnc(C)c1 | pIC50 | 4.82

###

assay: Unbound intrinsic clearance in rat hepatocytes; type: ADME, cell-based, Hepatocyte
Quick reference for CL free among some compounds

chemical-structure | CL free
COc1nc(C2=NOC[C@H](COc3ccc(F)cc3C)N2)ccc1-n1cnc(C)c1 | 114.4 L/h/kg
COc1nc(C2=NOC[C@H](COc3ccc(Cl)cc3C(F)(F)F)N2)ccc1-n1cnc(C)c1 | 229.8 L/h/kg
COc1nc(C2=NOC[C@H](COc3ccc(F)cc3C)N2)ccc1-n1cnc(Cl)c1 | 246.3 L/h/kg
COc1nc(C2=NOC[C@H](COc3ccc(F)cc3C)N2)ccc1-c1ccnc(C)c1 | 195.5 L/h/kg
COc1nc(C2=NOC[C@H](c3cc4ccccc4o3)N2)ccc1-n1cnc(C)c1 | 5.04 L/h/kg
COc1nc(C2=NOC[C@@H]3[C@H](Oc4ccc(Cl)cc4C(F)(F)F)CCCN23)ccc1-n1cnc(C)c1 | 255.1 L/h/kg
COc1nc(C2=NOC[C@H](c3cc4ccccc4s3)N2)ccc1-n1cnc(C)c1 | 25.8 L/h/kg

###

assay: Cytotoxicity against human HepG2 cells assessed as reduction in cell viability by measuring ATP; conditions: read-out: TC50 (the source's name)

chemical-structure | CC50
COc1nc(C2=NOC[C@H](c3cc4ccccc4o3)N2)ccc1-n1cnc(C)c1 | > 72 µM

###

test: Modulation of gamma-secretase (unknown origin); parameters: species or system Homo sapiens

chemical-structure | EC50 / nM
COc1cc(N2CCC(C(=O)N3CCC[C@@H](Oc4ccc(Cl)cc4C(F)(F)F)C3)CC2)ccn1 | 35

###

test: Cmax in Wistar rat at 10 mg/kg, po; format: ADME, organism-based; parameters: dose 10 mg/kg, route oral; settings: in vivo
measure-name: Cmax (µM)

chemical-structure | readout-number
COc1nc(C2=NOC[C@H](c3cc4ccccc4o3)N2)ccc1-n1cnc(C)c1 | 7.3
